# system tested: T1, wild-type glutathione S-transferase (GST)-EMD LCD fusion protein
# T1 sequence (P50402 whole entry, species assumed, looked up): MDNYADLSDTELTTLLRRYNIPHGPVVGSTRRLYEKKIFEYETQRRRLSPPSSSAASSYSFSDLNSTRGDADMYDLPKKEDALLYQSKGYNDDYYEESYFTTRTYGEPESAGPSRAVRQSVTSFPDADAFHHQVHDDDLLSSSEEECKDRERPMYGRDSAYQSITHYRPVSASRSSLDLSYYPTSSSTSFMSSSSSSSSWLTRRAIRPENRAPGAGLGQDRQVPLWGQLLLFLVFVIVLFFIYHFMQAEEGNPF
# assay notes: pull-down; wild-type GST-EMD LCD immobilized on glutathione resin, incubated with HA-tagged EMD LCD prey (50 nM), washed with binding buffer, eluted with GSH; Western blot against HA in eluent relative to input, densitometry (n=3)
// reported fold reduction of pulldown relative to wild-type for each item listed
Report only the number, with the unit fold understood.

# binder, endpoint result
data = [
    ("HA-tagged semi-synthetic EMD LCD 3xD_(199-203) (domain or fragment, three D-amino acids at alternating positions within 199-203) RRLSPPSSSAASSYSFSDLNSTRGDADMYDLPKKEDALLYQSKGYNDDYYEESYFTTRTYGEPESAGPSRAVRQSVTSFPDADAFHHQVHDDDLLSSSEEECKDRERPMYGRDSAYQSITHYRPVSASRSSLDLSYYPTSSSTCFMSSSSSSSSWLTRRAIRPENRAPGAGLGQER", 6.2),
    ("HA-tagged semi-synthetic EMD LCD 3xD_(207-211) (domain or fragment, three D-amino acids at alternating positions within 207-211) RRLSPPSSSAASSYSFSDLNSTRGDADMYDLPKKEDALLYQSKGYNDDYYEESYFTTRTYGEPESAGPSRAVRQSVTSFPDADAFHHQVHDDDLLSSSEEECKDRERPMYGRDSAYQSITHYRPVSASRSSLDLSYYPTSSSTCFMSSSSSSSSWLTRRAIRPENRAPGAGLGQER", 1.8),
    ("HA-tagged semi-synthetic EMD LCD 3xD_(195-199) (domain or fragment, three D-amino acids at alternating positions within 195-199) RRLSPPSSSAASSYSFSDLNSTRGDADMYDLPKKEDALLYQSKGYNDDYYEESYFTTRTYGEPESAGPSRAVRQSVTSFPDADAFHHQVHDDDLLSSSEEECKDRERPMYGRDSAYQSITHYRPVSASRSSLDLSYYPTSSSTCFMSSSSSSSSWLTRRAIRPENRAPGAGLGQER", 7.9),
]

Request: State its fold reduction of pulldown relative to wild-type: HA-tagged semi-synthetic EMD LCD 3xD_(203-207) (domain or fragment, three D-amino acids at alternating positions within 203-207) RRLSPPSSSAASSYSFSDLNSTRGDADMYDLPKKEDALLYQSKGYNDDYYEESYFTTRTYGEPESAGPSRAVRQSVTSFPDADAFHHQVHDDDLLSSSEEECKDRERPMYGRDSAYQSITHYRPVSASRSSLDLSYYPTSSSTCFMSSSSSSSSWLTRRAIRPENRAPGAGLGQER
Result: 3.6

Request: Find the measured fold reduction of pulldown relative to wild-type of HA-tagged semi-synthetic EMD LCD 3xD_(191-195) (domain or fragment, three D-amino acids at alternating positions within 191-195) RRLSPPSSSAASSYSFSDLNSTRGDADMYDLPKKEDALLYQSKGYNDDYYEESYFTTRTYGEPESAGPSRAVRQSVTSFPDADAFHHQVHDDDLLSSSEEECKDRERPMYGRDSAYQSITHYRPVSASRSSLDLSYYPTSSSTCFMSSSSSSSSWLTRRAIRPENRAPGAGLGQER and report it.
Result: 8.8

Request: Provide one value: measured fold reduction of pulldown relative to wild-type of HA-tagged semi-synthetic EMD LCD 3xD_(211-215) (domain or fragment, three D-amino acids at alternating positions within 211-215) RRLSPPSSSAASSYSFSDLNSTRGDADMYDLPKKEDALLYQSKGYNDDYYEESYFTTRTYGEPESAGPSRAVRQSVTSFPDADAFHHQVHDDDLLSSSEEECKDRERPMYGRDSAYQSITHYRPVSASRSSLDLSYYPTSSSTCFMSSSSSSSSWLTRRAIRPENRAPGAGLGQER
Result: 1.7

These data points were gathered from paper doi:10.64898/2025.12.17.694949.
